# System: various anti-gD2 antibodies
# Measurement notes: Reactivity of gD variants with anti-gD2 antibodies (competitive ELISA)
# Type: binding, human
# Experimental conditions: immobilized gD variant

>  <Molecule>
gD1-315v3V: gD1-315 with glycochain at SC-F and V231W (protein) KYALADPSLKMADPNRFRGKNLPVLDQLTDPPGVKRVYHIQPSLEDPFQNASIPITVYYAVLERACRSVLLHAPSEAPQIVRGASDEARKHTYNLTIAWYRMGDNCAIPITVMEYTECPYNKSLGVCPIRTQPRWSYYDSFSAVSEDNLGFLMHAPAFETAGTYLRLVKINDWTEITQFILEHRARASCKYALPLRIPPAACLTSKAYQQGVTVDSIGMLPRFIPENQRTWALYSLKIAGWHGPKPPYTSTLLPPELSDTTNATQPELVPEDPEDSALLEDPAGTVSSQIPPNWHIPSIQDVAPHHAPAAPSNPGHHHHHH

>  <Reactivity with anti-gD2 antibody 72>
− ((−): less than 30%)

$$$$
>  <Molecule>
gD1-275v3: gD1-275 with glycochain at P50 (SC-F) (protein) KYALADPSLKMADPNRFRGKNLPVLDQLTDPPGVKRVYHIQPSLEDPFQNASIPITVYYAVLERACRSVLLHAPSEAPQIVRGASDEARKHTYNLTIAWYRMGDNCAIPITVMEYTECPYNKSLGVCPIRTQPRWSYYDSFSAVSEDNLGFLMHAPAFETAGTYLRLVKINDWTEITQFILEHRARASCKYALPLRIPPAACLTSKAYQQGVTVDSIGMLPRFIPENQRTVALYSLKIAGWHGPKPPYTSTLLPPELSDTTNATQPELVPEDPEDHHHHHH

>  <Reactivity with anti-gD2 antibody 72>
− ((−): less than 30%)

$$$$
